Target: Estrogen receptor (Homo sapiens)
Sequence (whole entry): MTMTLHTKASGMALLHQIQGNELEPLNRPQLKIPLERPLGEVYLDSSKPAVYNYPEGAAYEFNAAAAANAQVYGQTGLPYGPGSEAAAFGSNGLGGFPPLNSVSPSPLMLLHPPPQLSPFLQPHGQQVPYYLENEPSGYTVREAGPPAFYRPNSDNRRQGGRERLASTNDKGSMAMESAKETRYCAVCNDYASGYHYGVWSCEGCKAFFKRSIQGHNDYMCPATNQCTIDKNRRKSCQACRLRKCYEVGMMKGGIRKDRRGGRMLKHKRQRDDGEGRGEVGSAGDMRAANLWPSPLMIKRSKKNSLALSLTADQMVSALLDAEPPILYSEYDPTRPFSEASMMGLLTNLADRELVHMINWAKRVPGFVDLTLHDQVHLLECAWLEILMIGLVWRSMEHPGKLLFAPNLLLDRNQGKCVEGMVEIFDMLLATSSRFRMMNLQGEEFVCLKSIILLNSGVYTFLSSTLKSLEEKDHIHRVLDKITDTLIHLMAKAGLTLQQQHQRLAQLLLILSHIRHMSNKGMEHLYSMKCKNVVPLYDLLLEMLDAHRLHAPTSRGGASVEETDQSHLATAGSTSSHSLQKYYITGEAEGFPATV
Test: Activity at ERalpha expressed in CHO cells co-transfected with ERE plasmid assessed as relative transcriptional activation at 10 nM by luciferase reporter assay relative to estradiol
Format: cell-based
// values below are reported Activity
Form entry: value (%) — number only.

Some solved cases for reference:
Molecule smiles | Metric | Measurement
C[C@]12CC[C@H](c3ccc(O)cc3F)C[C@@H]1CC[C@@H]2O | Activity | 44
Cc1cc(O)ccc1[C@H]1CC[C@@]2(C)[C@@H](CC[C@@H]2O)C1 | Activity | 9.7
C[C@]12CC[C@H](c3ccc(O)c(F)c3)C[C@@H]1CC[C@@H]2O | Activity | 8.3

As a next step, examine the compound that follows.
Can you look up Activity on Estrogen receptor (Homo sapiens) for C[C@]12CC[C@H](c3ccc(O)cc3)C[C@@H]1CC[C@@H]2O ?
4.3
